# tested system: Tyrosine-protein kinase Lck (Homo sapiens, UniProt P06239)
# Sequence (P06239 whole entry): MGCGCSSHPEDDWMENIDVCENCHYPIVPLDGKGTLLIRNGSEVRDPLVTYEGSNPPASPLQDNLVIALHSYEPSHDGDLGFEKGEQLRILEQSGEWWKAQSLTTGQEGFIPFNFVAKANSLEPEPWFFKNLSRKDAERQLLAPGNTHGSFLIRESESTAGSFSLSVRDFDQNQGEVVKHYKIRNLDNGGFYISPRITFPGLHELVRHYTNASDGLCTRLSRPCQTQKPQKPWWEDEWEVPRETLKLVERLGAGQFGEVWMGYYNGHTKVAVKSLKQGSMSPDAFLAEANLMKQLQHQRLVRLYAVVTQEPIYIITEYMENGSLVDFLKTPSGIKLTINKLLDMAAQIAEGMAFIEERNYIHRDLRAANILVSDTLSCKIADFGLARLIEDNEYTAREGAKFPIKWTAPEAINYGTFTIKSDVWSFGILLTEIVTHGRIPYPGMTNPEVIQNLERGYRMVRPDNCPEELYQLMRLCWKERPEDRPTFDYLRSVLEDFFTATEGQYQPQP
# method description: Inhibition of LCK (unknown origin) using tamra-p34cdc-derived peptide as substrate after 30 mins
Ki listing for selected molecules.

{"columns": ["chemical string", "result units", "qualifier", "Ki"],
 "data": [
  ["Cc1cnc(Nc2cc(Cc3ccccc3)nc(N[C@H]3CC[C@H](O)CC3)n2)s1", "µM", "=", 0.02],
  ["O[C@H]1CC[C@H](Nc2nc(Nc3n[nH]c4ccccc34)cc(C(F)(F)c3ccc(F)cc3)n2)CC1", "µM", "=", 15.8],
  ["O[C@H]1CC[C@H](Nc2nc(Nc3ccc(Oc4ccc(F)cc4)cn3)cc(C(F)(F)c3ccc(F)cc3)n2)CC1", "µM", "=", 0.501],
  ["Cc1cc2nc(Nc3cc(Cc4ccccc4)nc(N[C@H]4CC[C@H](O)CC4)n3)sc2cc1C", "µM", ">", 25.1],
  ["COc1ccc2nc(Nc3cc(Cc4ccccc4)nc(N[C@H]4CC[C@H](O)CC4)n3)sc2c1", "µM", "=", 0.126],
  ["COc1ccc2nc(Nc3cc(C(F)(F)c4ccc(F)cc4)nc(N[C@H]4CC[C@H](O)CC4)n3)sc2c1", "µM", "=", 0.251],
  ["O[C@H]1CC[C@H](Nc2nc(Cc3ccccc3)cc(Nc3nc4ccc(Cl)cc4s3)n2)CC1", "µM", "=", 0.0794],
  ["COc1ccc2nc(Nc3cc(Cc4ccccc4)nc(N[C@H]4CC[C@H](O)CC4)n3)sc2n1", "µM", "=", 0.0794],
  ["N#Cc1ccc2nc(Nc3cc(Cc4ccccc4)nc(N[C@H]4CC[C@H](O)CC4)n3)sc2c1", "µM", "=", 0.0631]
]}

###

# tested system: Tyrosine-protein kinase ITK/TSK (Homo sapiens, UniProt Q08881)
# Sequence (Q08881 whole entry): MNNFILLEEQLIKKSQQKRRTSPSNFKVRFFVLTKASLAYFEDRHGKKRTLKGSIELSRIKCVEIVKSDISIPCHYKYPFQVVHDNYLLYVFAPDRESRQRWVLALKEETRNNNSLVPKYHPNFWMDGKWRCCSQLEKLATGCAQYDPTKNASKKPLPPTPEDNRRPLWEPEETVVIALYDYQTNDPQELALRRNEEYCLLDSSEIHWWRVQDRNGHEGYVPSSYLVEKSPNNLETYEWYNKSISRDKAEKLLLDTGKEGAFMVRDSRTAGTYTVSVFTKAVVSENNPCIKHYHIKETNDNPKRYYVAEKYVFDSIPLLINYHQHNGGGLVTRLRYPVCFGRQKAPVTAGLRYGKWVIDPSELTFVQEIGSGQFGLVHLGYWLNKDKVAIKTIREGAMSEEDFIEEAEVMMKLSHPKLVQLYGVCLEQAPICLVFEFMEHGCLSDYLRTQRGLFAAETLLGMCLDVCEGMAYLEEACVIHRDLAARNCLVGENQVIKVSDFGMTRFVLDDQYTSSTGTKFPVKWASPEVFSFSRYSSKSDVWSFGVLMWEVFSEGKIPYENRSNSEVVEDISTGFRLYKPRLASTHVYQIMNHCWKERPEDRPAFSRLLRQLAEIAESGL
# method description: Inhibition of recombinant human FLAG-tagged ITK using biotinylated GST-SAM68 as substrate after 30 mins

{"columns": ["chemical string", "result units", "Ki"],
 "data": [
  ["O[C@H]1CC[C@H](Nc2nc(Cc3ccccc3)cc(Nc3nc4ccc(C(F)(F)F)cc4s3)n2)CC1", "nM", 12.6],
  ["O[C@H]1CC[C@H](Nc2nc(Nc3ncc(Cc4ccccc4)s3)cc(C(F)(F)c3ccc(F)cc3)n2)CC1", "nM", 63.1],
  ["COc1ccc2nc(Nc3cc(Cc4ccccc4)nc(N[C@H]4CC[C@H](O)CC4)n3)sc2n1", "nM", 0.2]
]}

###

# tested system: Tyrosine-protein kinase ITK/TSK (Homo sapiens)
# method description: Inhibition of recombinant human FLAG-tagged ITK using biotinylated GST-SAM68 as substrate after 30 mins
Ki listing for selected compounds.
measurement type: Ki (nM)

{"columns": ["chemical string", "measurement type", "qualifier", "reported measurement"],
 "data": [
  ["O[C@H]1CC[C@H](Nc2nc(Cc3ccccc3)cc(Nc3nc4ccc(Cl)cc4s3)n2)CC1", "Ki", "=", 0.316],
  ["COc1ccc2nc(Nc3cc(C(F)(F)c4ccc(F)cc4)nc(N[C@H]4CC[C@H](O)CC4)n3)sc2n1", "Ki", "=", 15.8],
  ["COc1ccc2nc(Nc3cc(C(F)(F)c4ccc(F)cc4)nc(N[C@H]4CC[C@H](O)CC4)n3)sc2c1", "Ki", "=", 20],
  ["O[C@H]1CC[C@H](Nc2nc(Cc3ccccc3)cc(Nc3nc4ccccc4s3)n2)CC1", "Ki", "=", 1],
  ["Cc1csc(Nc2cc(Cc3ccccc3)nc(N[C@H]3CC[C@H](O)CC3)n2)n1", "Ki", "=", 158],
  ["COc1ccc2nc(Nc3cc(C(F)(F)c4ccc(F)cc4)nc(N4CCC[C@H]4C(N)=O)n3)sc2c1", "Ki", "=", 3980],
  ["NC(=O)[C@@H]1CCCN1c1nc(Nc2ncc(Cc3ccccc3)s2)cc(C(F)(F)c2ccc(F)cc2)n1", "Ki", ">", 10000],
  ["Cc1cnc(Nc2cc(Cc3ccccc3)nc(N[C@H]3CC[C@H](O)CC3)n2)s1", "Ki", "=", 2],
  ["O[C@H]1CC[C@H](Nc2nc(Nc3cc4ccccc4cn3)cc(C(F)(F)c3ccc(F)cc3)n2)CC1", "Ki", "=", 6.31],
  ["O[C@H]1CC[C@H](Nc2nc(Nc3n[nH]c4ccccc34)cc(C(F)(F)c3ccc(F)cc3)n2)CC1", "Ki", "=", 794],
  ["Cc1ccc2nc(Nc3cc(Cc4ccccc4)nc(N[C@H]4CC[C@H](O)CC4)n3)sc2c1", "Ki", "=", 0.398],
  ["O[C@H]1CC[C@H](Nc2nc(Nc3ccc(Oc4ccc(F)cc4)cn3)cc(C(F)(F)c3ccc(F)cc3)n2)CC1", "Ki", "=", 501],
  ["COc1ccc2nc(Nc3cc(Cc4ccccc4)nc(N[C@H]4CC[C@H](O)CC4)n3)sc2c1", "Ki", "=", 3.98],
  ["N#Cc1ccc2nc(Nc3cc(Cc4ccccc4)nc(N[C@H]4CC[C@H](O)CC4)n3)sc2c1", "Ki", "=", 0.251],
  ["CCc1ccc2nc(Nc3cc(Cc4ccccc4)nc(N[C@H]4CC[C@H](O)CC4)n3)sc2n1", "Ki", "=", 1.58],
  ["Cc1cc2nc(Nc3cc(Cc4ccccc4)nc(N[C@H]4CC[C@H](O)CC4)n3)sc2cc1C", "Ki", ">", 10000],
  ["O[C@H]1CC[C@H](Nc2nc(Cc3ccccc3)cc(Nc3nc4cccnc4s3)n2)CC1", "Ki", "=", 0.251],
  ["CCc1ccc2nc(Nc3cc(Cc4ccccc4)nc(N[C@H]4CC[C@H](O)CC4)n3)sc2c1", "Ki", "=", 0.631]
]}

###

# tested system: Insulin receptor (Homo sapiens, UniProt P06213)
# Sequence (P06213 28-758 limits assumed): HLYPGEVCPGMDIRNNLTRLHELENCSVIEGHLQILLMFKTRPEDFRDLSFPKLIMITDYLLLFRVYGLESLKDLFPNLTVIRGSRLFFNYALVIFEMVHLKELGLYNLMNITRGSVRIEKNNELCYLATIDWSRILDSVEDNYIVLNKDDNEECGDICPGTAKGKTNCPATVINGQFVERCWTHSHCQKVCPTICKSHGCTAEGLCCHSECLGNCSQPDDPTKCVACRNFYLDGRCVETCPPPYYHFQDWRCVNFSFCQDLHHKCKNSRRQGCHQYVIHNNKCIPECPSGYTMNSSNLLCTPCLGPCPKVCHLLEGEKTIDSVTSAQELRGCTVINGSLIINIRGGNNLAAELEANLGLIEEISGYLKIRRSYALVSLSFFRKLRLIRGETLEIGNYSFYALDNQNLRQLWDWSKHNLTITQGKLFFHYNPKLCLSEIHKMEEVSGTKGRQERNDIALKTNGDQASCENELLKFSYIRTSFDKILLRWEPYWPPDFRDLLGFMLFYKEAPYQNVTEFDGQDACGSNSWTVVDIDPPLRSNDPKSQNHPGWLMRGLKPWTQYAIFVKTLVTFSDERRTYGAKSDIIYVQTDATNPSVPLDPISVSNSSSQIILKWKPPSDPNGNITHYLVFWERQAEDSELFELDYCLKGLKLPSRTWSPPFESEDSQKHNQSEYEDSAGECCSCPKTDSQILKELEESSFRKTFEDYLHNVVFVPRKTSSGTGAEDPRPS
# Sequence (P06213 763-1382 limits assumed): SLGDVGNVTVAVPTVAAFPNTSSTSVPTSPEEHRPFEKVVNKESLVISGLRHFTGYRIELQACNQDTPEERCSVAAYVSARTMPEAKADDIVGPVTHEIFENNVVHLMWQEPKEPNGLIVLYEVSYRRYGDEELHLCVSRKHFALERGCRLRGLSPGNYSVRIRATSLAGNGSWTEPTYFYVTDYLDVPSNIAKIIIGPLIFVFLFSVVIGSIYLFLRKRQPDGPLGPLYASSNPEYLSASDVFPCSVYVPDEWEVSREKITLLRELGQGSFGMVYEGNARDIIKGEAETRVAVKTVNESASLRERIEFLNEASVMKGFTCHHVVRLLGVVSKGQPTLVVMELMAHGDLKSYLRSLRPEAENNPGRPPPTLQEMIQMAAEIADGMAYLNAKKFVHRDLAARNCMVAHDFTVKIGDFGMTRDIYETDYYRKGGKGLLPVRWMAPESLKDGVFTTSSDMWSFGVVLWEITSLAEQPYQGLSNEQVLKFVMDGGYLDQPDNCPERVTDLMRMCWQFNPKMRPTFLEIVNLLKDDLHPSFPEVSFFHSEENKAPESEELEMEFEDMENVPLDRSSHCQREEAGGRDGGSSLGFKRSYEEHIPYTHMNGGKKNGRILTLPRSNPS
pIC50: −log10 of the molar value.
measurement type: pIC50

{"columns": ["chemical string", "reported measurement"],
 "data": [
  ["CCc1ccc2nc(Nc3cc(Cc4ccccc4)nc(N[C@H]4CC[C@H](O)CC4)n3)sc2c1", 6.80]
]}

###

IC50 listing for selected molecules.
# System: PBMC
# method description: Inhibition of cytostim-induced IFNgamma production in human PBMC treated 1 hr before cytostim stimulation measured after 18 hrs by MSD assay
# Assay type: functional, cell-based

{"columns": ["chemical string", "IC50 [nM]"],
 "data": [
  ["CCc1ccc2nc(Nc3cc(Cc4ccccc4)nc(N[C@H]4CC[C@H](O)CC4)n3)sc2c1", 50.1],
  ["COc1ccc2nc(Nc3cc(Cc4ccccc4)nc(N[C@H]4CC[C@H](O)CC4)n3)sc2c1", 25.1]
]}

###

# tested system: Tyrosine-protein kinase Lck (Homo sapiens)
# method description: Inhibition of LCK (unknown origin) using tamra-p34cdc-derived peptide as substrate after 30 mins
Ki listing for selected molecules.

{"columns": ["chemical string", "tested system", "Ki, nM"],
 "data": [
  ["CCc1ccc2nc(Nc3cc(Cc4ccccc4)nc(N[C@H]4CC[C@H](O)CC4)n3)sc2c1", "Tyrosine-protein kinase Lck (Homo sapiens)", 100],
  ["Cc1ccc2nc(Nc3cc(Cc4ccccc4)nc(N[C@H]4CC[C@H](O)CC4)n3)sc2c1", "Tyrosine-protein kinase Lck (Homo sapiens)", 251],
  ["NC(=O)[C@@H]1CCCN1c1nc(Nc2ncc(Cc3ccccc3)s2)cc(C(F)(F)c2ccc(F)cc2)n1", "Tyrosine-protein kinase Lck (Homo sapiens)", 316],
  ["COc1ccc2nc(Nc3cc(C(F)(F)c4ccc(F)cc4)nc(N[C@H]4CC[C@H](O)CC4)n3)sc2n1", "Tyrosine-protein kinase Lck (Homo sapiens)", 200],
  ["CCc1ccc2nc(Nc3cc(Cc4ccccc4)nc(N[C@H]4CC[C@H](O)CC4)n3)sc2n1", "Tyrosine-protein kinase Lck (Homo sapiens)", 100],
  ["O[C@H]1CC[C@H](Nc2nc(Nc3ncc(Cc4ccccc4)s3)cc(C(F)(F)c3ccc(F)cc3)n2)CC1", "Tyrosine-protein kinase Lck (Homo sapiens)", 100],
  ["O[C@H]1CC[C@H](Nc2nc(Cc3ccccc3)cc(Nc3nc4ccccc4s3)n2)CC1", "Tyrosine-protein kinase Lck (Homo sapiens)", 316],
  ["O[C@H]1CC[C@H](Nc2nc(Cc3ccccc3)cc(Nc3nc4ccc(C(F)(F)F)cc4s3)n2)CC1", "Tyrosine-protein kinase Lck (Homo sapiens)", 50.1],
  ["Cc1csc(Nc2cc(Cc3ccccc3)nc(N[C@H]3CC[C@H](O)CC3)n2)n1", "Tyrosine-protein kinase Lck (Homo sapiens)", 3160]
]}

###

# tested system: Tyrosine-protein kinase Lck (Homo sapiens)
pIC50: −log10 of the molar value.

{"columns": ["chemical string", "pIC50"],
 "data": [
  ["CCc1ccc2nc(Nc3cc(Cc4ccccc4)nc(N[C@H]4CC[C@H](O)CC4)n3)sc2c1", 6.90]
]}
